biological target: PDE10 (UniProt Q9Y233); test: PDE10 enzyme inhibition, IMAP TR-FRET assay (MPDE10A7 Enzyme Activity and Inhibition); format: biochemical; details: IC50 class against PDE10; read-out: IC50
Each entry below carries its reported IC50.

Solved cases below.
molecule: CN1CCCC1CCOc1nccnc1Oc1ccc(C(=O)c2nc3ccccc3[nH]2)cc1 (stereo not shown) [Example 175]
assaySystem: PDE10 (UniProt Q9Y233)
result: 0.1 to 0.25 µM

molecule: COCC(=O)N1CCC(c2nccnc2Oc2ccc(Nc3nc4ccccc4s3)cc2)CC1 [Example 233]
assaySystem: PDE10 (UniProt Q9Y233)
result: < 0.025 µM

molecule: COC1CC=C(c2nccnc2Oc2ccc(C(=O)c3nc4ccccc4[nH]3)cc2)CC1 (stereo not shown) [Example 187]
assaySystem: PDE10 (UniProt Q9Y233)
result: < 0.025 µM

Give a short answer stating reported IC50 for O=C(O)C1CN(c2nccnc2Oc2ccc(Nc3nc4ccccc4s3)cc2)C1 [Example 78] .
< 0.025 µM
